Reference for the values: paper PMC10452110

Entries and their measured Hemolysis: concentration of compound at 10% hemolytic activity (HC10) follow.
- Tested on: human red blood cells
- assay-details: Hemolytic assay
- Format: cell-based
- condition-details: mean (n = 2)
- Method: Hemolysis assays were conducted using the protocols previously reported.
observation-type: Hemolysis: concentration of compound at 10% hemolytic activity (HC10)

COc1ccc2[nH]cc(CC(=O)NCCCNCCCCCCNCCCNC(=O)Cc3c[nH]c4ccc(OC)cc34)c2c1.O=C(O)C(F)(F)F.O=C(O)C(F)(F)F [Compound 16b] ... >38 µM
O=C(Cc1c[nH]c2ccccc12)NCCCNCCCCCCCNCCCNC(=O)Cc1c[nH]c2ccccc12.O=C(O)C(F)(F)F.O=C(O)C(F)(F)F [Compound 14c] ... 0.72 µM
COc1cccc2c(CC(=O)NCCCNCCCCCCCCNCCCNC(=O)Cc3c[nH]c4c(OC)cccc34)c[nH]c12.O=C(O)C(F)(F)F.O=C(O)C(F)(F)F [Compound 19d] ... >37 µM
O=C(Cc1c[nH]c2c(F)cccc12)NCCCNCCCCCCCNCCCNC(=O)Cc1c[nH]c2c(F)cccc12.O=C(O)C(F)(F)F.O=C(O)C(F)(F)F [Compound 18c] ... 1.94 µM
O=C(Cc1c[nH]c2ccc(Br)cc12)NCCCNCCCCCCCNCCCNC(=O)Cc1c[nH]c2ccc(Br)cc12.O=C(O)C(F)(F)F.O=C(O)C(F)(F)F [Compound 15c] ... >34 µM
O=C(Cc1c[nH]c2ccccc12)NCCCNCCCCCCCCCCNCCCNC(=O)Cc1c[nH]c2ccccc12.O=C(O)C(F)(F)F.O=C(O)C(F)(F)F [Compound 14e] ... ≤0.30 µM
COc1ccc2[nH]cc(CC(=O)NCCCNCCCCCCCCNCCCNC(=O)Cc3c[nH]c4ccc(OC)cc34)c2c1.O=C(O)C(F)(F)F.O=C(O)C(F)(F)F [Compound 16d] ... >37 µM
Cc1ccc2[nH]cc(CC(=O)NCCCNCCCCCCCCCCNCCCNC(=O)Cc3c[nH]c4ccc(C)cc34)c2c1.O=C(O)C(F)(F)F.O=C(O)C(F)(F)F [Compound 17e] ... 3.19 µM
O=C(Cc1c[nH]c2ccccc12)NCCCNCCCCCCCCNCCCNC(=O)Cc1c[nH]c2ccccc12.O=C(O)C(F)(F)F.O=C(O)C(F)(F)F [Compound 14d] ... 15.8 µM
COc1ccc2[nH]cc(CC(=O)NCCCNCCCCCCCCCCCCNCCCNC(=O)Cc3c[nH]c4ccc(OC)cc34)c2c1.O=C(O)C(F)(F)F.O=C(O)C(F)(F)F [Compound 16f] ... >35 µM
COc1cccc2c(CC(=O)NCCCNCCCCNCCCNC(=O)Cc3c[nH]c4c(OC)cccc34)c[nH]c12.O=C(O)C(F)(F)F.O=C(O)C(F)(F)F [Compound 19a] ... >40 µM
COc1ccc2[nH]cc(CC(=O)NCCCNCCCCCCCNCCCNC(=O)Cc3c[nH]c4ccc(OC)cc34)c2c1.O=C(O)C(F)(F)F.O=C(O)C(F)(F)F [Compound 16c] ... >38 µM
Cc1ccc2[nH]cc(CC(=O)NCCCNCCCCCCCCCCCCNCCCNC(=O)Cc3c[nH]c4ccc(C)cc34)c2c1.O=C(O)C(F)(F)F.O=C(O)C(F)(F)F [Compound 17f] ... ≤0.28 µM
O=C(Cc1c[nH]c2c(F)cccc12)NCCCNCCCCCCCCCCNCCCNC(=O)Cc1c[nH]c2c(F)cccc12.O=C(O)C(F)(F)F.O=C(O)C(F)(F)F [Compound 18e] ... 1.49 µM
O=C(Cc1c[nH]c2c(F)cccc12)NCCCNCCCCCCCCCCCCNCCCNC(=O)Cc1c[nH]c2c(F)cccc12.O=C(O)C(F)(F)F.O=C(O)C(F)(F)F [Compound 18f] ... ≤0.28 µM
COc1cccc2c(CC(=O)NCCCNCCCCCCCCCCCCNCCCNC(=O)Cc3c[nH]c4c(OC)cccc34)c[nH]c12.O=C(O)C(F)(F)F.O=C(O)C(F)(F)F [Compound 19f] ... 10.7 µM
Cc1ccc2[nH]cc(CC(=O)NCCCNCCCCCCCCNCCCNC(=O)Cc3c[nH]c4ccc(C)cc34)c2c1.O=C(O)C(F)(F)F.O=C(O)C(F)(F)F [Compound 17d] ... 0.42 µM
Cc1cccc2c(CC(=O)NCCCNCCCCCCCCCCCCNCCCNC(=O)Cc3c[nH]c4c(C)cccc34)c[nH]c12.O=C(O)C(F)(F)F.O=C(O)C(F)(F)F [Compound 20f] ... ≤0.28 µM
Cc1cccc2c(CC(=O)NCCCNCCCCNCCCNC(=O)Cc3c[nH]c4c(C)cccc34)c[nH]c12.O=C(O)C(F)(F)F.O=C(O)C(F)(F)F [Compound 20a] ... 4.11 µM
O=C(Cc1c[nH]c2c(F)cccc12)NCCCNCCCCCCCCNCCCNC(=O)Cc1c[nH]c2c(F)cccc12.O=C(O)C(F)(F)F.O=C(O)C(F)(F)F [Compound 18d] ... >38 µM
O=C(Cc1c[nH]c2ccccc12)NCCCNCCCCCCNCCCNC(=O)Cc1c[nH]c2ccccc12.O=C(O)C(F)(F)F.O=C(O)C(F)(F)F [Compound 14b] ... >41 µM
Cc1ccc2[nH]cc(CC(=O)NCCCNCCCCCCNCCCNC(=O)Cc3c[nH]c4ccc(C)cc34)c2c1.O=C(O)C(F)(F)F.O=C(O)C(F)(F)F [Compound 17b] ... 23.1 µM
O=C(Cc1c[nH]c2ccc(Br)cc12)NCCCNCCCCCCNCCCNC(=O)Cc1c[nH]c2ccc(Br)cc12.O=C(O)C(F)(F)F.O=C(O)C(F)(F)F [Compound 15b] ... >34 µM

###

- Tested on: human red blood cells
- assay-details: Hemolytic assay
- Type: cell-based
- condition-details: mean (n = 2)
Consider the following compounds and their measured Hemolysis: concentration of compound at 10% hemolytic activity (HC10) readings.
observation-type: Hemolysis: concentration of compound at 10% hemolytic activity (HC10)

O=C(Cc1c[nH]c2c(F)cccc12)NCCCNCCCCCCNCCCNC(=O)Cc1c[nH]c2c(F)cccc12.O=C(O)C(F)(F)F.O=C(O)C(F)(F)F [Compound 18b] ... >40 µM
O=C(Cc1c[nH]c2c(F)cccc12)NCCCNCCCCNCCCNC(=O)Cc1c[nH]c2c(F)cccc12.O=C(O)C(F)(F)F.O=C(O)C(F)(F)F [Compound 18a] ... >41 µM
O=C(Cc1c[nH]c2ccc(Br)cc12)NCCCNCCCCCCCCCCNCCCNC(=O)Cc1c[nH]c2ccc(Br)cc12.O=C(O)C(F)(F)F.O=C(O)C(F)(F)F [Compound 15e] ... ≤0.25 µM
Cc1cccc2c(CC(=O)NCCCNCCCCCCCCCCNCCCNC(=O)Cc3c[nH]c4c(C)cccc34)c[nH]c12.O=C(O)C(F)(F)F.O=C(O)C(F)(F)F [Compound 20e] ... 12.7 µM
COc1cccc2c(CC(=O)NCCCNCCCCCCCNCCCNC(=O)Cc3c[nH]c4c(OC)cccc34)c[nH]c12.O=C(O)C(F)(F)F.O=C(O)C(F)(F)F [Compound 19c] ... >38 µM
Cc1ccc2[nH]cc(CC(=O)NCCCNCCCCCCCNCCCNC(=O)Cc3c[nH]c4ccc(C)cc34)c2c1.O=C(O)C(F)(F)F.O=C(O)C(F)(F)F [Compound 17c] ... >39 µM

###

- Tested on: P. aeruginosa ATCC 27853
- assay-details: Enhancement of doxycycline action against P. aeruginosa
- Type: cell-based, Pseudomonas aeruginosa
- condition-details: doxycycline at 4.5 µM
Dox/P. a: concentration required to restore doxycycline activity (combination MIC) reference
observation-type: Dox/P. a: concentration required to restore doxycycline activity (combination MIC)

O=C(Cc1c[nH]c2c(F)cccc12)NCCCNCCCCCCCNCCCNC(=O)Cc1c[nH]c2c(F)cccc12.O=C(O)C(F)(F)F.O=C(O)C(F)(F)F [Compound 18c] ... 243 µM
Cc1cccc2c(CC(=O)NCCCNCCCCNCCCNC(=O)Cc3c[nH]c4c(C)cccc34)c[nH]c12.O=C(O)C(F)(F)F.O=C(O)C(F)(F)F [Compound 20a] ... > 259 µM
COc1ccc2[nH]cc(CC(=O)NCCCNCCCCCCNCCCNC(=O)Cc3c[nH]c4ccc(OC)cc34)c2c1.O=C(O)C(F)(F)F.O=C(O)C(F)(F)F [Compound 16b] ... 25 µM
O=C(Cc1c[nH]c2ccc(Br)cc12)NCCCNCCCCCCCCCCCCNCCCNC(=O)Cc1c[nH]c2ccc(Br)cc12.O=C(O)C(F)(F)F.O=C(O)C(F)(F)F [Compound 15f] ... 98.5 µM
Cc1ccc2[nH]cc(CC(=O)NCCCNCCCCCCCCCCNCCCNC(=O)Cc3c[nH]c4ccc(C)cc34)c2c1.O=C(O)C(F)(F)F.O=C(O)C(F)(F)F [Compound 17e] ... 233 µM
O=C(Cc1c[nH]c2c(F)cccc12)NCCCNCCCCCCCCCCNCCCNC(=O)Cc1c[nH]c2c(F)cccc12.O=C(O)C(F)(F)F.O=C(O)C(F)(F)F [Compound 18e] ... 231 µM
Cc1cccc2c(CC(=O)NCCCNCCCCCCCCCCCCNCCCNC(=O)Cc3c[nH]c4c(C)cccc34)c[nH]c12.O=C(O)C(F)(F)F.O=C(O)C(F)(F)F [Compound 20f] ... > 226 µM
COc1cccc2c(CC(=O)NCCCNCCCCCCCCCCNCCCNC(=O)Cc3c[nH]c4c(OC)cccc34)c[nH]c12.O=C(O)C(F)(F)F.O=C(O)C(F)(F)F [Compound 19e] ... 225 µM
O=C(Cc1c[nH]c2ccccc12)NCCCNCCCCCCCNCCCNC(=O)Cc1c[nH]c2ccccc12.O=C(O)C(F)(F)F.O=C(O)C(F)(F)F [Compound 14c] ... 63.5 µM
O=C(Cc1c[nH]c2c(F)cccc12)NCCCNCCCCNCCCNC(=O)Cc1c[nH]c2c(F)cccc12.O=C(O)C(F)(F)F.O=C(O)C(F)(F)F [Compound 18a] ... 64.0 µM
O=C(Cc1c[nH]c2ccccc12)NCCCNCCCCCCCCCCCCNCCCNC(=O)Cc1c[nH]c2ccccc12.O=C(O)C(F)(F)F.O=C(O)C(F)(F)F [Compound 14f] ... 14.6 µM
